system: Streptococcus pneumoniae; test: In vitro minimum inhibitory concentration against Streptococcus pneumoniae UC41; format: functional
readout: MIC (mg/L)
Give bare numbers, in mg/L.

Would you please look over these solved cases?
[[record]]
compound = "CC(=O)N[C@@H]1[C@H](O[C@@H]2c3ccc(c(Cl)c3)Oc3cc4cc(c3O)Oc3ccc(cc3Cl)C[C@H]3NC(=O)[C@H](N)c5ccc(O)c(c5)Oc5cc(O)cc(c5)[C@H](NC3=O)C(=O)N[C@H]4C(=O)N[C@H]3C(=O)N[C@@H]2C(=O)N[C@H](C(=O)NCCN2CCOCC2)c2cc(O)cc(O[C@H]4O[C@H](CO)[C@@H](O)[C@@H](O)[C@@H]4O)c2-c2cc3ccc2O)O[C@@H](CO)[C@@H](O)[C@@H]1O"
target_or_system = "Streptococcus pneumoniae"
readout = "MIC"
units_text = "mg/L"
assay_value = 0.5

[[record]]
compound = "N[C@H]1C(=O)N[C@@H]2Cc3ccc(c(Cl)c3)Oc3cc4cc(c3O)Oc3ccc(cc3Cl)[C@@H](O)[C@@H]3NC(=O)[C@H](NC(=O)[C@@H]4NC(=O)[C@@H](NC2=O)c2cc(O)cc(c2)Oc2cc1ccc2O)c1ccc(O)c(c1)-c1c(O)cc(O)cc1[C@@H](C(=O)NC(CCC(=O)O)C(=O)O)NC3=O (stereo partly drawn)"
target_or_system = "Streptococcus pneumoniae"
readout = "MIC"
units_text = "mg/L"
assay_value = 0.12


# ---- query compound ----
Please fill in: MIC reported for N[C@H]1C(=O)N[C@@H]2Cc3ccc(c(Cl)c3)Oc3cc4cc(c3O)Oc3ccc(cc3Cl)[C@@H](O)[C@@H]3NC(=O)[C@H](NC(=O)[C@@H]4NC(=O)[C@@H](NC2=O)c2cc(O)cc(c2)Oc2cc1ccc2O)c1ccc(O)c(c1)-c1c(O)cc(O)cc1[C@@H](C(=O)NC1CN2CCC1CC2)NC3=O (stereo partly drawn) = 0.06
